FYI, the data here is from ChEMBL document CHEMBL2434847.

assayed-target: Platelet-derived growth factor receptor beta (Homo sapiens, UniProt P09619)
Sequence (P09619 whole entry): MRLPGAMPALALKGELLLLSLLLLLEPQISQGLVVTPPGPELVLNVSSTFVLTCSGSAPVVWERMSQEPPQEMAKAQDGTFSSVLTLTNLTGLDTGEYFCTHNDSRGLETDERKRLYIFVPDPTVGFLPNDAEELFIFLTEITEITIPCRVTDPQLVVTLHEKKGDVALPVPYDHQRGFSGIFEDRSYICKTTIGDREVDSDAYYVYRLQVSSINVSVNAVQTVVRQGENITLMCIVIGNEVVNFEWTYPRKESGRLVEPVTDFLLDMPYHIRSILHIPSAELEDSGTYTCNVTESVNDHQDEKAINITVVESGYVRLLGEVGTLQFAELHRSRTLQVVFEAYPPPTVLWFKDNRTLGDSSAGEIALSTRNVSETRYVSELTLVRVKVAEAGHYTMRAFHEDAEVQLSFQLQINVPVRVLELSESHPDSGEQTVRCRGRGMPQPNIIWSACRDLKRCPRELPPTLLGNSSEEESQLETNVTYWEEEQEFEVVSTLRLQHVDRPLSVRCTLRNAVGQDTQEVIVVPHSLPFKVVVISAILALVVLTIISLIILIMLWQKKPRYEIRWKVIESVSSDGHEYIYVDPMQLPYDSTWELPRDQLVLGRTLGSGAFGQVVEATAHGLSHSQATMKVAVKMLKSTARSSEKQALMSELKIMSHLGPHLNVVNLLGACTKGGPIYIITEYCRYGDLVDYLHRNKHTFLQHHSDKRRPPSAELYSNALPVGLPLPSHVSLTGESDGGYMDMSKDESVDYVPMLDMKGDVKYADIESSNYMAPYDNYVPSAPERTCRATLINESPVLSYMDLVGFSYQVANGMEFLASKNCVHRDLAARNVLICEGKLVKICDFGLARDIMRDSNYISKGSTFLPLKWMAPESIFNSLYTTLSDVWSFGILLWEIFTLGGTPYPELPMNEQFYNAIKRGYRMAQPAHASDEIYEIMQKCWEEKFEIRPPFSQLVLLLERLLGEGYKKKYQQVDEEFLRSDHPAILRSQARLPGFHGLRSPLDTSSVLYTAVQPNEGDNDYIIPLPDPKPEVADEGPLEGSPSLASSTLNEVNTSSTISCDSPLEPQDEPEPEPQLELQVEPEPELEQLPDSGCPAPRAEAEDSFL
result-type: pIC50
Numbers only, as −log10 of the molar value.

Reported pIC50 for Platelet-derived growth factor receptor beta (Homo sapiens, UniProt P09619), given "COc1cc2c(Oc3ccc(NC(=O)c4cc(-c5ccc(C)cc5)ccn4)cc3F)ccnc2cc1OCCCN1CCN(C)CC1" ? 8.85
